test: Inhibition of HIV NL43 recombinant reverse transcriptase by scintillation proximity assay; design: species or system Human immunodeficiency virus
Outcome Measure: log10 of IC50 (log10 of the value in nM)
Kindly note that the scale is log10 and the underlying IC50 is in nM.

Look over these answered cases.
NC(=O)c1[nH]c2ccc(Cl)cc2c1S(=O)(=O)N1CCCC1: 0.59
NC(=O)c1[nH]c2ccc(Br)cc2c1S(=O)(=O)N1CCC(F)(F)CC1: 0.65

Report measured log10 of IC50; entry is NC(=O)c1[nH]c2ccc(-c3cccnc3)cc2c1S(=O)(=O)N1CCCC1
3.34

Output measured log10 of IC50 for this item: O=S(=O)(c1c(-c2nc3cccc(O)c3[nH]2)[nH]c2ccc(Br)cc12)N1CCCC1
1.00

---

Item-by-item account of IC50
target: Human immunodeficiency virus type 1 reverse transcriptase (Human immunodeficiency virus 1, UniProt Q72547, Y181C); experiment: Inhibition of HIV HXB2 recombinant reverse transcriptase Y181C mutant by scintillation proximity assay
Supply the numeric figure in nM, leaving out any unit text.

Here's what some known entries look like.
NC(=O)c1[nH]c2ccc(Cl)cc2c1S(=O)(=O)N1CCCC1: 48
O=S(=O)(c1c(-c2nc3cccc(O)c3[nH]2)[nH]c2ccc(Br)cc12)N1CCCC1: 810
O=S(=O)(c1c(-c2nc3ccccc3[nH]2)[nH]c2ccc(Br)cc12)N1CCCC1: 38

Report measured IC50; entry is CCC(O)c1cnc(-c2[nH]c3ccc(Br)cc3c2S(=O)(=O)N2CCCC2)[nH]1 (stereo not given)
2600

---

target: Human immunodeficiency virus type 1 reverse transcriptase (Human immunodeficiency virus 1, UniProt Q72547, K103N); experiment: Inhibition of HIV NL43 recombinant reverse transcriptase K103N mutant by scintillation proximity assay
Recorded pIC50 for the following molecules
Schema: pIC50 number; meaning minus log10 of the concentration expressed in molar units.

O=S(=O)(c1c(-c2nc3ccccc3[nH]2)[nH]c2ccc(Br)cc12)N1CCCC1: 6.55

Please indicate pIC50 recorded for O=S(=O)(c1c(-c2ncc(-c3ccccc3)[nH]2)[nH]c2ccc(Br)cc12)N1CCCC1
6.82

Determine its reported pIC50: O=C(NCc1nccs1)c1[nH]c2ccc(Br)cc2c1S(=O)(=O)N1CCCC1
6.55

Please supply the value of reported pIC50 for the item O=C(NCc1cncs1)c1[nH]c2ccc(Br)cc2c1S(=O)(=O)N1CCCC1
7.03

---

IC50 by entry:
test: Inhibition of HIV NL43 recombinant reverse transcriptase by scintillation proximity assay; parameters: species or system Human immunodeficiency virus
State the value with its unit after it.

// solved cases for IC50 follow
NC(=O)c1[nH]c2ccc(Br)cc2c1S(=O)(=O)NC1CCC(F)(F)C1 (stereo unspecified): 0.2 nM
O=C(NCc1ccn[nH]1)c1[nH]c2ccc(Br)cc2c1S(=O)(=O)N1CCCC1: 2.5 nM
NC(=O)c1[nH]c2ccc(Br)cc2c1S(=O)(=O)NC1CCCCC1: 14 nM

Write down IC50 measured for item NC(=O)c1[nH]c2ccc(C#CC3CC3)cc2c1S(=O)(=O)N1CCCC1
430 nM

Supply IC50 value. Item: CCC(O)c1cnc(-c2[nH]c3ccc(Br)cc3c2S(=O)(=O)N2CCCC2)[nH]1 (stereo unspecified)
8.8 nM

Supply reported IC50 belonging to this compound: Cc1cnc(-c2[nH]c3ccc(Br)cc3c2S(=O)(=O)N2CCCC2)[nH]1
3.1 nM
